system: panel of 3 experts; experiment: Sensory evaluation of strength of mouth-coating feel of mayonnaise, single compounds in ethanol (Experimental Example 14); format: in vivo; settings: concentration 1 ppm with respect to mayonnaise
strength of mouth-coating feel less than 3 points is condition met; strength of mouth-coating feel greater than or equal to 3 points is condition not met.

Use the examples below as a reference point.
Compound	Target Under Test	Label Class
C=C1CC/C=C(\C)CC[C@@H]2[C@@H]1CC2(C)C [β-caryophyllene, reference compound]	panel of 3 experts	condition met
CC(=O)O[C@H]1CC(C)(C)[C@@H]2CC[C@]3(C)C[C@]12CC[C@H]3OC(C)=O [clovanediol diacetate]	panel of 3 experts	condition not met
CC1=CCC(C(C)(C)O)CC1 (stereo not shown)	panel of 3 experts	condition met
CC1=CCC2CC1C2(C)C (stereo not drawn) [α-pinene, reference compound]	panel of 3 experts	condition met
CC(C)CC(=O)O[C@H]1CC(C)(C)[C@@H]2CC[C@]3(C)C[C@]12CC[C@H]3O [clovanediol-3-monoisovalerate]	panel of 3 experts	condition not met

Hi there! Is strength of mouth-coating feel for C=C(C)C1CCC2(C)OC2C1 (stereo not shown) [limonene oxide] below 3 points, do you know?
condition met

Now the compound CC1(C)C[C@H](O)[C@]23CC[C@@H](O)[C@](C)(CC[C@@H]12)C3
condition not met

Now the compound C=C1CC[C@@H](O)[C@](C)(O)CC[C@@H]2[C@@H]1CC2(C)C
condition not met

Now the compound CC1(C)C2CC3OC3(C)C1C2 (stereo not drawn) [α-pinene oxide]
condition not met

Now the compound C=C(C)[C@H]1CC=C(C)CC1 [limonene, reference compound]
condition met

Now the compound C=C1CC[C@H]2O[C@]2(C)CC[C@@H]2[C@@H]1CC2(C)C [β-caryophyllene oxide]
condition not met

Recorded values, source patent US20220000157A1.
